Biological target: C-X-C chemokine receptor type 4 (Homo sapiens)
Test: Antagonist activity at CXCR4 in human MDA-MB-231 cells assessed as inhibition of CXCL12-mediated cell invasion at 10 nM by […] cell invasion assay
Format: functional, cell-based
Decide using inhibition: a value greater than or equal to 60% is 1, a smaller one is -1.

Worked examples, 5 molecules total:
1. Fc1cnc(NCc2ccc(CNc3ncc(F)cn3)cc2)nc1 | 1
2. Fc1cnc(Cl)nc1NCc1ccc(CNc2ccnc(NCCN3CCOCC3)n2)cc1 | 1
3. Fc1cccc(NCc2ccc(CNc3cccc(F)n3)cc2)n1 | -1
4. c1cnc(NCc2ccc(CNc3ccc(N4CCCC4)cc3)cc2)nc1 | -1
5. CCOCCN1CCN(C(=O)c2cnc(NCc3ccc(CNc4ncc(F)cn4)cc3)nc2C(F)(F)F)CC1 | -1

Input line: API: above_or_equal(metric=inhibition, cutoff=60%) for item COc1ncc(F)c(NCc2ccc(CNc3nc(OC)ncc3F)cc2)n1
Output line: 1

Input line: Entry Fc1ccc(NCc2ccc(CNc3ccc(F)cn3)cc2)nc1 : is its inhibition no less than 60%?
Output line: -1

Input line: inhibition >= 60% for Fc1ccccc1NCc1ccc(CNc2ccccc2F)cc1 ?
Output line: -1

Input line: Quick check, inhibition >= 60%? Clc1ccc(NCc2ccc(CNc3ncccn3)cc2)nc1
Output line: 1

Input line: Test whether the molecule c1ccc(NCc2ccc(CNc3ncccn3)cc2)nc1 records inhibition of 60% or higher.
Output line: -1

###

For each record, write down the corresponding EC.
Biological target: C-X-C chemokine receptor type 4 (Homo sapiens)
Assay: Displacement of biotinylated-TN14003 from CXCL12 binding site of CXCR4 in human MDA-MB-231 cells assessed as concentration required to inhibit >50% using rhodamine staining
Assay type: cell-based
One number for each entry, in nM.

The examples below pair each entry with its known result.
1. Fc1cnc(NCc2ccc(CNc3ncc(F)cn3)cc2)nc1 | 1
2. Fc1cnc(Cl)nc1NCc1ccc(CNc2ccnc(NCCN3CCOCC3)n2)cc1 | 1
3. Clc1nc(Cl)nc(NCc2ccc(CNc3nc(Cl)nc(Cl)n3)cc2)n1 | 10
4. c1ccc(NCc2ccc(CNc3ncccn3)cc2)nc1 | 100
5. Clc1ccc(NCc2ccc(CNc3ncccn3)cc2)nc1 | 10

Count: 5. Required value per item: EC.
1. c1cnc(NCc2ccc(CNc3cccc(N4CCCC4)c3)cc2)nc1
2. Fc1cnc(NCc2ccc(CNc3nccc(C(F)(F)F)n3)cc2)nc1
3. CCOCCN1CCN(C(=O)c2cnc(NCc3ccc(CNc4ncc(F)cn4)cc3)nc2C(F)(F)F)CC1
4. Clc1cccc(NCc2ccc(CNc3ncccn3)cc2)n1
5. c1cnc(NCc2ccc(CNc3ccc(N4CCCC4)cc3)cc2)nc1

Output line:
10
1
1
1
1

###

Biological target: C-X-C chemokine receptor type 4 (Homo sapiens, UniProt P61073)
Sequence (P61073 whole entry): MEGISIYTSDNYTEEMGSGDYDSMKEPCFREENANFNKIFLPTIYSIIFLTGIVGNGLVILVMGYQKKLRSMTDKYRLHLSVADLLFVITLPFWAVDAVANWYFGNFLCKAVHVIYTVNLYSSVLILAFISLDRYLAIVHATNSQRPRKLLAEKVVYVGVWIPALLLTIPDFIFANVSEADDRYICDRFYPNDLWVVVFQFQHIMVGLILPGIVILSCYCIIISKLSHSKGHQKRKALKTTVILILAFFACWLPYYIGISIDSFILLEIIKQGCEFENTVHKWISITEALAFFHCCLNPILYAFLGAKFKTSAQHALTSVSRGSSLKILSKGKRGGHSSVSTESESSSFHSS
Test: Antagonist activity at CXCR4 in human MDA-MB-231 cells assessed as inhibition of CXCL12-mediated cell invasion at 100 nM by […] cell invasion assay
Format: functional, cell-based
Kindly state inhibition for each of the entries shown.
Give bare numbers, in %.

1) c1cnc(NCc2ccc(CNc3ccccc3N3CCCC3)cc2)nc1 | 73
2) Fc1cccc(NCc2ccc(CNc3ncccn3)cc2)n1 | 80
3) c1cnc(NCc2ccc(CNc3ccc(N4CCCC4)cc3)cc2)nc1 | 82
4) Fc1ccccc1NCc1ccc(CNc2ncccn2)cc1 | 62
5) Clc1cccc(NCc2ccc(CNc3ncccn3)cc2)n1 | 100
6) c1ccc(NCc2ccc(CNc3ccccc3)cc2)cc1 | 64
7) Clc1ccc(NCc2ccc(CNc3ncccn3)cc2)nc1 | 100
8) Clc1nc(Cl)nc(NCc2ccc(CNc3nc(Cl)nc(Cl)n3)cc2)n1 | 82

Answer for every listed entry: what is its inhibition? The entries follow.
1. COc1nccc(NCc2ccc(CNc3ccnc(OC)n3)cc2)n1
2. c1ccc(NCc2ccc(CNc3ncccn3)cc2)nc1
3. Fc1cnc(NCc2ccc(CNc3nccc(C(F)(F)F)n3)cc2)nc1

Output line:
1. 65
2. 64
3. 93

Please state inhibition for every compound in the list that follows.
1. Fc1ccc(NCc2ccc(CNc3ccc(F)cn3)cc2)nc1
2. Fc1ccccc1NCc1ccc(CNc2ccccc2F)cc1

Output line:
68
58
